Test: Solubility of the cyclic carboxylic acid in pure water at 25° C. (HPLC of supernatant)
Settings: thermodynamic from solid
Outcome measure: solubility at 1 day (mg/mL)
Return type: number; implicit unit mg/mL.

Value lookup for solubility at 1 day; key = "O=C(O)c1ccc(O)c(O)c1"
11

* * *

Assay: Solubility of the cyclic carboxylic acid in pure water at 25° C. (HPLC of supernatant)
Conditions: pure water, thermodynamic from solid
Outcome measure: solubility at 1 day (µg/mL)
Supply the numeric figure in µg/mL, leaving out any unit text.

Bench note: what solubility at 1 day did O=C(O)c1ccc(O)cc1 [Comparative Example I-6, 4-hydroxybenzoic acid] show?
4900

Alright, here's another compound for you.
Quick one: solubility at 1 day for Nc1ccc(C(=O)O)cc1 [Comparative Example I-7, 4-aminobenzoic acid] ?
4600
